Test system: SF-295 CNS
Experiment: NCI tumour cell line growth inhibition, 48 h
For each record, write down the corresponding TGI.

Exam item: Requested field: TGI. Item: C1=CC=C2NCCCNC3=CC=CC=CC3=NCCCN=C2C=C1
Marked response: > 100 µM

Exam item: Record request: TGI value, item C=C1CCC2C(C)(C)CCC[C@]2(C)[C@H]1CO (stereo partly drawn)
Marked response: > 100 µM

Exam item: Fill in the blank: the reported TGI of Nc1nc(Cl)cc(NCCC2(CO)CCC2)n1 is ____.
Marked response: > 100 µM

Exam item: Need TGI, item CCOC(=O)c1ccc(C(=O)/C(C(C)=O)=C2\CCCN2C)n1C
Marked response: > 100 µM

Exam item: Endpoint output: TGI of CCC1CCc2nc3sc(C(=O)Nc4cccc(F)c4)c(N)c3cc2C1 (stereo not drawn) . Value?
Marked response: > 100 µM

Exam item: Which TGI is reported for this compound? O=C1CCC(=O)N1n1c(Cc2ccc(Cl)cc2)n[nH]c1=O
Marked response: > 100 µM

Exam item: Entry Cc1cc(NC[C@H](O)[C@H](O)[C@H](O)CO)c(Sc2cc(=O)[nH]c(=O)[nH]2)cc1C has what TGI?
Marked response: > 62.5 µM

Exam item: Which value of TGI has been reported for COC(=O)c1c(N)n[nH]c1N in the records?
Marked response: > 100 µM

Exam item: Value lookup for TGI; key = O=C(Cc1nccc2c1[nH]c1ccccc12)OC1C#CCSCC#C/C=C\1 (stereo not drawn)
Marked response: > 100 µM

Exam item: For CCOC(=O)Cc1nc2sc(S(N)(=O)=O)nn2c1Br , what is its reported TGI?
Marked response: > 100 µM

Exam item: Which measured TGI value corresponds to COC(=O)C1CCC(=O)N1C(c1ccc(OC)cc1)c1ccc(OC)cc1 (stereo not drawn) ?
Marked response: > 100 µM

Exam item: GET /values?readout=TGI&item= N#C/C(=C\c1cc(Cl)cc(Cl)c1)c1ccccn1
Marked response: > 100 µM

Exam item: Dear colleague, I am looking for the recorded TGI of the following compound: CC(C)(C)c1cc(C2=NN(c3ccccc3)C(c3ccccc3)C2)cc(C(C)(C)C)c1O (stereo not drawn)
Marked response: > 100 µM
